src = patent US20050245527A1

# IC50 values compiled below
# Tested on: sodium channels
# Format: cell-based
# Experimental parameters: read-out: IC50 (μM), sodium channel-inhibiting activity; rat fetal cultured hippocampal neurons, SBFI fluorescence in the presence of 4-aminopyridine, 5 minutes after addition, 1 μM tetrodotoxin = 100%
Form entry: value (µM) — number only.

Any idea what IC50 was measured for "O=c1[nH]ccnc1CN1CCC(COc2ccccc2Cl)CC1" ? 3.7

Suppose we examine the compound "Cc1ccc(-c2ccccc2)n1CC1(O)CCN(Cc2ncc[nH]c2=O)CC1" ; what IC50 value has been reported? 6.1

# query: IC50 of entry "O=c1[nH]ccnc1CN1CCC(c2nc(-c3ccccc3)no2)CC1" 4.1

# lookup: IC50 of "Cc1cccc(OCC2CCN(Cc3ncc[nH]c3=O)CC2)c1" 4.1

Which IC50 is reported for this compound? O=C(Cc1ccccc1F)C1CCCN(Cc2ncc[nH]c2=O)C1 (centres unmarked) 5.5
